Recorded melting point, one value per entry.

Worked cases, melting point given:
O=C1C(=C(O)Cc2ccccc2)SC(=S)N1c1ccccc1: 146 to 148 °C
CCCCc1nc2ccc(C(=O)O)cc2n1Cc1ccccc1Cl: 238 to 241 °C
CS(=O)c1c(C#N)nn(-c2c(Cl)cc(C(F)(F)F)cc2Cl)c1NCC(N)=O (configuration not stated): 155 to 157 °C

Prompt: Look up melting point: "C=CC(=O)NC(=O)NC(=O)CCl"
Completion: 144 to 145 °C

Prompt: Look up melting point: "O=S(=O)(c1cccnc1)N1CCC(Nc2nc(Nc3cccc(C(F)(F)F)c3)nc(OCC(F)(F)F)n2)CC1"
Completion: 222 to 224 °C

Prompt: Look up melting point: CC(C(=O)O)c1ccc(C(=O)c2ccc3ccccc3c2)cc1 (configuration not stated)
Completion: 150 °C

Prompt: Look up melting point: "O=c1c2ccccc2[nH]c2c(OCCN(CCCl)CCCl)cccc12"
Completion: 131 to 133 °C

Prompt: Look up melting point: "O=S1(=O)NCCNc2ccc(Oc3ccccc3)cc21"
Completion: 146 to 149 °C

* * *

value.kind: melting point

Worked cases, melting point given:
CC(C(=O)C=Cc1ccccc1)C(=O)C=Cc1ccccc1 (configuration not stated): 154 to 157 °C
CCCOc1oc(=O)c2cc(NC(=O)NCC)ccc2c1Cl: 189 to 191 °C
CCCCn1c(=O)c(NC(=O)Nc2c(C(C)C)cc(NCc3cccnc3)cc2C(C)C)c(-c2cccc(OC)c2)c2cccnc21: 160 to 161 °C

Prompt: Look up melting point: Fc1ccccc1C1CCN(Cc2ccccc2)CCN1Cc1ccccc1 (configuration not stated)
Completion: 82 to 83 °C

Prompt: Look up melting point: O=C(O)C1CCC(c2cc3cccnc3c(=O)[nH]2)CC1 (configuration not stated)
Completion: > 270 °C

Prompt: Look up melting point: "CCOC(=O)C=Cc1ccc(NCCOC)cc1"
Completion: 49.9 to 53.4 °C

* * *

value.kind: melting point (°C)

(1) Cc1cccc(-c2nc3ccc(O)cc3n2Cc2ccccc2C(F)(F)F)c1
(2) Cc1ccccc1CNC(=S)c1ccc2c(c1)N(C(C)CN1CCCC1)c1ccccc1S2 (racemic)
Prompt: // max by melting point over [ 1 , 2 ] Bench note: the answer is the label of the chosen record.
Completion: 1

* * *

Recorded melting point, one value per entry.

Worked cases, melting point given:
COc1ccc(S(=O)(=O)C2(C(=O)O)CCN(C(C)(C)C)CC2)cc1: 204 °C
O=C(COc1ccc2c(c1)OCO2)c1ccccc1: 123 to 126 °C
CC1CCCCN(C(=O)C2Cc3ccccc3N2c2ccc(=O)n(C)n2)C1 (stereo not drawn): 109 to 112 °C
CC(=Cc1cc([N+](=O)[O-])ccc1Cl)C(=O)O: 228 to 230 °C
OCCCC(=C(c1ccccc1)c1ccc(O)cc1)c1ccccc1: 157 to 163 °C
COC(=O)C(=CNc1ccc(F)cc1)C(=O)C=Cc1ccc(NC(C)=O)cc1: 161 to 164 °C

Prompt: Look up melting point: "O=C(O)CCC(=O)c1ccc(Oc2ccc(NC(=O)c3ccc(Cl)c(Cl)c3)cc2F)cc1"
Completion: 205 to 208 °C

Prompt: Look up melting point: "COc1cc2c(C)c(-c3ccccc3)sc2c(Cl)c1Cl"
Completion: 138 °C

Prompt: Look up melting point: "NC1=Nc2ccccc2CS1"
Completion: 132 to 135 °C

Prompt: Look up melting point: "O=C(c1ccc(-n2cncn2)cc1)N1CCC(NCCc2ccc(Cl)cc2)CC1"
Completion: 131 to 132 °C

Prompt: Look up melting point: "COc1cccc(NC(=O)CC23CC4CC(CC(C4)C2)C3)c1C"
Completion: 173 to 175 °C

Prompt: Look up melting point: Nc1c(Cl)cc(C(O)CNCCCCCCOCCCc2ccc([N+](=O)[O-])cn2)cc1Cl (stereo not drawn)
Completion: 60 to 61 °C

Prompt: Look up melting point: "NS(=O)(=O)c1ccc(-c2cnn(-c3ccc(F)c(F)c3)c(=O)c2Oc2ccc(F)cc2)cc1"
Completion: 224 to 226 °C
